molecular target: Ras-related protein Rab-2A (Canis lupus familiaris); test: fluorescent GTP competition at wildtype Rab2A – biochemical, multiplex dose response, Bodipy-FL-GTP, flow cytometry, SAR follow-up (AID 2033); conditions: GST-Rab2 beads, Bodipy-FL-GTP binding, Ki calculated from EC50
Readout: pKi
Friendly reminder that pKi comes from taking -log10 of the concentration in mol/L.

Query: Recorded pKi for COc1ccc(-c2noc(CCC(=O)N3CCN(c4ccccc4Cl)CC3)n2)cc1 , please?
Response: 6.82

Query: Recorded pKi for Cc1ccc(C)c(N2CCN(C(=O)CCc3nc(-c4ccc(Br)cc4)no3)CC2)c1 , please?
Response: 6.72

Query: Recorded pKi for Cc1ccc(C)c(N2CCN(C(=O)CCc3nc(-c4cccc(Br)c4)no3)CC2)c1 , please?
Response: 6.64

Query: Recorded pKi for COc1ccc(-c2ccc(CCC(=O)N3CCN(c4cc(C)ccc4C)CC3)o2)cc1 , please?
Response: 6.02

Query: Recorded pKi for Cc1cccc(-c2noc(CCC(=O)N3CCN(c4cc(C)ccc4C)CC3)n2)c1 , please?
Response: 7.10

Query: Recorded pKi for Cc1ccc(-c2noc(CCC(=O)N3CCN(c4cc(C)ccc4C)CC3)n2)cc1 , please?
Response: 6.59

Query: Recorded pKi for COc1cccc(-c2noc(CCC(=O)N3CCN(c4cc(C)ccc4C)CC3)n2)c1 , please?
Response: 6.60

Query: Recorded pKi for COc1ccc(-c2noc(CCC(=O)N3CCN(c4ccccc4C)CC3)n2)cc1 , please?
Response: 6.80

Query: Recorded pKi for COc1ccc(-c2noc(CCC(=O)N3CCC(c4cc(C)ccc4C)CC3)n2)cc1 , please?
Response: 6.80

Query: Recorded pKi for Cc1ccc(C)c(N2CCN(C(=O)CCc3nc(-c4ccccc4F)no3)CC2)c1 , please?
Response: 7.22
